- measured_target: Human recombinant Top1 (Homo sapiens)
- Construct: made in house
- Sequence (P11387 whole entry): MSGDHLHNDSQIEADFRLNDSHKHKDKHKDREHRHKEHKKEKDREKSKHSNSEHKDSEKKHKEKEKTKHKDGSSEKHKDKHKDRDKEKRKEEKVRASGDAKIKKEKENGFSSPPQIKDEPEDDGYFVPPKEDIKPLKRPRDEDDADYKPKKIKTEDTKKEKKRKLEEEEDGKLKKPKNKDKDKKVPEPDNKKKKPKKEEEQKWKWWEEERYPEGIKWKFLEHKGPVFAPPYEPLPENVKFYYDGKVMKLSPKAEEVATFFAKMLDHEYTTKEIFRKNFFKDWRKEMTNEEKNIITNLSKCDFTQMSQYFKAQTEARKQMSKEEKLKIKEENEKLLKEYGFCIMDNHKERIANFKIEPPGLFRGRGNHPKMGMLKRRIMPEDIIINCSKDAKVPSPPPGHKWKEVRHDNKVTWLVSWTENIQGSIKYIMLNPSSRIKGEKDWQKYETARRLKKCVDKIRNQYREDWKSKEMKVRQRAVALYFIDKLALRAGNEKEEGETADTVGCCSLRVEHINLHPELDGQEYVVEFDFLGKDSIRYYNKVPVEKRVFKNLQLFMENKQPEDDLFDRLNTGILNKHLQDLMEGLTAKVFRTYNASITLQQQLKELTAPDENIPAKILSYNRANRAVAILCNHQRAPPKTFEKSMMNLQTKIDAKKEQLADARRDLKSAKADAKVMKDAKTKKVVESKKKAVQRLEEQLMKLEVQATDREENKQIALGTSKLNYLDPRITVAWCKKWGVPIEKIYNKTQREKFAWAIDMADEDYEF
- test_name: Topoisomerase I-mediated DNA cleavage reactions
- Type: biochemical
- measurement_parameters: 117-bp DNA substrate, gel of FIG. 2
property_measured: 44 (C-G) cleavage site in Top1-mediated DNA cleavage pattern

>>> df
                                   molecule                        measured_target  recorded_value
0  CC[C@@]1(O)C(=O)OCc2c1cc1n(c2=O)Cc2cc3ccccc3nc2-1 [CPT, camptothecin, reference compound]  Human recombinant Top1 (Homo sapiens)             not
1  COc1cc2cnc3c(c2cc1OC)Cc1cc2c(cc1-3)OCO2 [Compound 5, reference compound]  Human recombinant Top1 (Homo sapiens)            seen
2  COc1cc2cnc3c(c2cc1OC)Cc1c-3cc2c(c1C)OCO2 [Compound 15]  Human recombinant Top1 (Homo sapiens)            seen
3  COc1cc2c3c(n(CCCNCCO)c(=O)c2cc1OC)-c1cc2c(cc1C3=O)OCO2 [MJ-III-65, reference compound]  Human recombinant Top1 (Homo sapiens)            seen

====

- Test system: all human cancer cell lines successfully tested
- test_name: NCI DTP antiproliferative screen, mean graph midpoint
- Type: cell-based
- measurement_parameters: average GI50 of all cell lines tested; values outside 10^-8 to 10^-4 M taken as the limits
Field: MGM (mean graph midpoint for growth inhibition). Provide a value for each of the compounds that follow.
The response must be a number in µM with no trailing unit.

Request: I am curious: what MGM (mean graph midpoint for growth inhibition) value has been reported for COc1cc2cnc3c(c2cc1OC)Cc1c-3cc2c(c1CN1CCOCC1)OCO2 [Compound 14e] ?
Response: 2.4

Request: I am curious: what MGM (mean graph midpoint for growth inhibition) value has been reported for `COc1cc2cnc3c(c2cc1OC)Cc1c-3cc2c(c1C)OCO2` ?
Response: 11.8

Request: I am curious: what MGM (mean graph midpoint for growth inhibition) value has been reported for COc1cc2cnc3c(c2cc1OC)Cc1c-3cc2c(c1CN(C)CCN(C)C)OCO2 [Compound 14f] ?
Response: 6.3

Request: I am curious: what MGM (mean graph midpoint for growth inhibition) value has been reported for COc1cc2cnc3c(c2cc1OC)Cc1c-3cc2c(c1Cn1ccnc1)OCO2 [Compound 14c] ?
Response: 0.52

Request: I am curious: what MGM (mean graph midpoint for growth inhibition) value has been reported for COc1cc2cnc3c(c2cc1OC)Cc1c-3cc2c(c1CN1CCCC1)OCO2 [Compound 14b] ?
Response: 2.3

Request: I am curious: what MGM (mean graph midpoint for growth inhibition) value has been reported for COc1cc2cnc3c(c2cc1OC)Cc1c-3cc2c(c1CN(C)C)OCO2 [Compound 14a] ?
Response: 4.4

Request: I am curious: what MGM (mean graph midpoint for growth inhibition) value has been reported for CC[C@@]1(O)C(=O)OCc2c1cc1n(c2=O)Cc2cc3ccccc3nc2-1 [CPT, camptothecin, reference compound] ?
Response: 0.0405

====

- System: DU-145
- test_name: NCI DTP antiproliferative screen, prostate DU-145
- Type: cell-based, human
property_measured: GI50 (nM)
The response must be a number in nM with no trailing unit.

Request: Field: GI50 (DU-145). Entry: COc1cc2cnc3c(c2cc1OC)Cc1c-3cc2c(c1CN(C)CCN(C)C)OCO2 [Compound 14f]
Response: 3400

Request: Field: GI50 (DU-145). Entry: COc1cc2cnc3c(c2cc1OC)Cc1c-3cc2c(c1CN1CCOCC1)OCO2 [Compound 14e]
Response: 1900

Request: Field: GI50 (DU-145). Entry: COc1cc2cnc3c(c2cc1OC)Cc1c-3cc2c(c1Cn1ccnc1)OCO2 [Compound 14c]
Response: 260
